Data credit: ChEMBL document CHEMBL4428046

- target-under-test: 5-hydroxytryptamine receptor 2B (Homo sapiens, UniProt P41595)
- Sequence (P41595 whole entry): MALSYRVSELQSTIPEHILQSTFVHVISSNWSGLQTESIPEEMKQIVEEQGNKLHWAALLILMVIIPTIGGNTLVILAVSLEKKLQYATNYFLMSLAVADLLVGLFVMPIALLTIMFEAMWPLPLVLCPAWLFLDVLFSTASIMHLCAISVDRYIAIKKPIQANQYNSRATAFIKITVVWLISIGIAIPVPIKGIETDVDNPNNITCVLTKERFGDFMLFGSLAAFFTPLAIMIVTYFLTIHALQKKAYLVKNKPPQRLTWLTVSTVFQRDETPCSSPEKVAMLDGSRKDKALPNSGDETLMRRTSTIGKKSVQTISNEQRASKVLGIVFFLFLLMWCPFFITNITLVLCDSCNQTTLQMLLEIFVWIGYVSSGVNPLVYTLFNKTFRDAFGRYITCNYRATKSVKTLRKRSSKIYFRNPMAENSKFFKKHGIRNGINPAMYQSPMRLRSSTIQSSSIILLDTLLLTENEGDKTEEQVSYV
pKi: −log10 of the molar value.
metric-name: pKi

| smiles-structure | experimental-value |
| --- | --- |
| OC[C@@]12C[C@@H]1[C@@H](n1cc(-c3ccccc3)c3c(Nc4ccccc4)ncnc31)[C@H](O)[C@@H]2O | 7.29 |

---

- target-under-test: Adenosine kinase (Homo sapiens)
- Sequence (P55263 whole entry): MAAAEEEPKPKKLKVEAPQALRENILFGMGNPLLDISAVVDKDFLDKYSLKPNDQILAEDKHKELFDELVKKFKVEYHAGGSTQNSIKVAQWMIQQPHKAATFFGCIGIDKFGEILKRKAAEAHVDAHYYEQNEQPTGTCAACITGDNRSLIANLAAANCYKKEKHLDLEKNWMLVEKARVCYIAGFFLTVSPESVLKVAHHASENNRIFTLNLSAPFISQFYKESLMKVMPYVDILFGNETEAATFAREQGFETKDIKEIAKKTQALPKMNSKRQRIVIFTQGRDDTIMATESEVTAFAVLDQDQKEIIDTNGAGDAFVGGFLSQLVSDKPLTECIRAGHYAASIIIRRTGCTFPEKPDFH
- assay-name: Inhibition of human adenosine kinase assessed as reduction in conversion of adenosine to AMP
pIC50: −log10 of the molar value.

| smiles-structure | pIC50 |
| --- | --- |
| Nc1ncnc2c1c(I)nn2[C@@H]1O[C@H](CO)[C@@H](O)[C@H]1O | 7.40 |
